Reported GI50 values for the following compounds.
System: MDA-MB-435
assay_name: NCI tumour cell line growth inhibition, 48 h
The source made the active and inactive calls. Rule as the data show it: active = GI50 up to about 1.1 µM and inactive = higher.

Worked examples follow.
stdin: Request the reported GI50 associated with O=C(Cc1ccc([N+](=O)[O-])cc1)OCC#CCOC(=O)Cc1ccc([N+](=O)[O-])cc1
stdout: > 10 µM (inactive)

stdin: Would you kindly repeat that for Nc1ccn(C2CCC(COP(=O)(O)OCC(O)COP(=O)(O)OCC3OC(n4cc(F)c(=O)[nH]c4=O)CC3O)O2)c(=O)n1 (centres undefined) ?
stdout: 14.8 µM (inactive)

stdin: Let us now turn to COc1cc2oc(-c3ccc(O)cc3)cc(=O)c2c(OC)c1O
stdout: > 100 µM (inactive)

Continuing:
stdin: Give the measured GI50 of CCOC(=O)C(NC(=O)c1cccc(Cl)c1)(N1CCN(c2cc3c(cc2F)c(=O)c(C(=O)O)cn3C2CC2)CC1)C(F)(F)F (centres undefined) .
stdout: 14.2 µM (inactive)

stdin: What would you report for O=c1c(/C=C/c2c(O)ccc3ccccc23)nnc2sc(-c3cccc([N+](=O)[O-])c3)nn12 ?
stdout: 17.1 µM (inactive)

stdin: Record: O=c1[nH]c(=S)[nH]c2c(C3OC(CO)C(O)C3O)nsc12 (centres undefined)
stdout: > 100 µM (inactive)

stdin: Consider next the compound CC1(C)O[C@H]2OC3CCC(=O)CC3(O)[C@H]2O1 (some centres undefined) in the same way.
stdout: > 100 µM (inactive)

stdin: Check Cc1ccsc1C(=S)Nc1ccc(Cl)c(C(=O)OC(C(C)C)C(C)C)c1 too.
stdout: 17.7 µM (inactive)

stdin: Query COC(=O)c1ccccc1/C=C1/Cc2cccc(C)c2C1=O next
stdout: > 100 µM (inactive)

* * *

Tested on: NCI-H226
assay_name: NCI tumour cell line growth inhibition, 48 h
Calls of active or inactive are those of the source. Rule as the data show it: active = GI50 up to about 1.1 µM and inactive = higher.
# maps each entry to its GI50

Some compounds with known GI50 results, for comparison:
stdin: May I ask what GI50 has been recorded for COC(=O)c1ccccc1/C=C1/Cc2cccc(C)c2C1=O ?
stdout: > 100 µM (inactive)

stdin: Now the same for Cc1cc(N(CCC#N)S(C)(=O)=O)ccc1C=O
stdout: > 100 µM (inactive)

stdin: Again, but for CCN(CC)C(=S)SS(=O)(=O)c1ccc(Cl)cc1
stdout: 62.7 µM (inactive)

stdin: Entry to check: Clc1ccc(Nc2ncco2)cc1Cl
stdout: > 10 µM (inactive)

stdin: Similarly, COc1nc2c(c(=O)n1C)N[C@H]1[C@H](OC(C)=O)[C@@H](OC(C)=O)CO[C@H]1N2 ?
stdout: > 100 µM (inactive)

--- query ---
stdin: Find the recorded GI50 belonging to O=C(c1ccccc1)C1(Br)S(=O)(=O)OCCOS1(=O)=O and report it.
stdout: > 100 µM (inactive)

* * *

Tested on: NCI-H23
assay_name: NCI tumour cell line growth inhibition, 48 h
The source made the active and inactive calls. Rule as the data show it: active = GI50 up to about 1.1 µM and inactive = higher. Where a SMILES comes first, the peptide text is derived from it. The star is where a group is joined. Boc = CC(C)(C)OC(=O)*
Catalogue of GI50 readings, one per entry.

Previously resolved entries follow.
stdin: If you can, please state the reported GI50 value of COc1ccc(C2=Nn3c(nc4sc5c(c4c3=O)CCCC5)SC2)cc1 .
stdout: > 100 µM (inactive)

stdin: Also need CCCCCCCCCCCC(=O)OCC1OC(n2cc(F)c(=O)[nH]c2=O)C(N)C(OC(=O)CCCCCCCCCCC)C1O (stereo not given) , thanks.
stdout: > 100 µM (inactive)

stdin: Check COc1ccc(N2C(=O)C3CC(c4ccc(Br)cc4)c4c([nH]c5ccccc45)C3C2=O)cc1 (stereo not given) too.
stdout: 11.4 µM (inactive)

stdin: Would you kindly repeat that for CC(C)(C)OC(=O)NCC(=O)NCC(=O)NCC(=O)NCC(=O)O (Boc-GGGG-OH) ?
stdout: > 100 µM (inactive)

Next:
stdin: Fill blank: measured GI50 of the compound C=CCSC1=N/C(=C\c2ccccc2)C(=O)N1CC=C is ____.
stdout: 56 µM (inactive)

* * *

Tested on: SF-268
assay_name: NCI tumour cell line growth inhibition, 48 h
Activity calls are given as the source filed them. No stated cut-off is given here; in the data, active = GI50 up to about 1.1 µM and inactive = higher.
reported_metric: GI50

# example entries with known answers
stdin: Could you share which GI50 value was measured for O=C(O)CCCCCOc1cccnc1/C=N/NC1=NCCN1 ?
stdout: > 100 µM (inactive)

stdin: Try this molecule next: COc1cc([C@@H]2c3cc4c(cc3[C@@H](NC(=O)c3ccc([N+](=O)[O-])cc3)C3COC(=O)[C@@H]32)OCO4)cc(OC)c1O (stereo partly specified)
stdout: 1.6 µM (inactive)

stdin: Can you handle Cc1ccsc1C(=S)Nc1ccc(Cl)c(C(=O)OC(C(C)C)C(C)C)c1 next?
stdout: 40.8 µM (inactive)

stdin: How about O=C(c1ccccc1Cl)n1oc2ccccc2c1=O ?
stdout: > 100 µM (inactive)

stdin: What about COc1ccc(/C=N/N=C(\N)NO)cc1F ?
stdout: 17.1 µM (inactive)

Others:
stdin: I am curious: what GI50 value has been reported for COc1ccc(N2NC(c3ccccc3)(c3ccccc3)C(C)C2=O)cc1 (stereo unspecified) ?
stdout: 88.5 µM (inactive)

stdin: Repeat with COC(=O)C(=O)C(C#N)c1ccc(CC#N)cc1 (stereo unspecified)
stdout: > 100 µM (inactive)

stdin: Further, for CC(=O)CC(=O)N1CCOC1=O ?
stdout: > 10 µM (inactive)

stdin: Now this one: CCOC(=O)/C(C)=C\[C@@]1(C)O[C@@H](C)[C@@](C)(OC(C)=O)[C@@H]1OC(C)=O
stdout: 39.3 µM (inactive)

stdin: Also NNS(=O)(=O)c1ccc(/C=C2\NC(=O)NC2=O)cc1 , if possible.
stdout: > 100 µM (inactive)

stdin: Also check O=c1ccc2[n+]([O-])c3ccc(O)cc3oc-2c1
stdout: 19.2 µM (inactive)

* * *

Test system: CAKI-1
assay_name: NCI tumour cell line growth inhibition, 48 h
The source made the active and inactive calls. Cut-off read from the data, not from the text of the source: active = GI50 up to about 1.1 µM and inactive = higher.
Field 'call' accepts active, inactive

Solved cases (5 shown):
stdin: // param item: COc1cc(C/N=c2/nc(N(C)C)ss2)cc(OC)c1OC ; yields the recorded call
stdout: inactive

stdin: Likewise for CC(=O)OCC1OC(n2cnc(C(N)=S)c2N)C(OC(C)=O)C1OC(C)=O (stereo not given) ?
stdout: inactive

stdin: Also COCN1C(=O)[C@@H]2CCCN2C(=O)c2cc(N)ccc21 ?
stdout: inactive

stdin: // next record FC(F)(F)c1nc(-c2ccccc2Cl)[nH]c1C(F)(F)F
stdout: active

stdin: Again, but for CC(C)(CN1CCCCC1)C(=O)/C=C/c1ccc(/C=C/C(=O)C(C)(C)CN2CCCCC2)cc1
stdout: active

Continuing:
stdin: Hi, do you know how COC(=O)C1=CC(=O)OC1(OO)c1ccccc1 (stereo not given) came out in this test?
stdout: inactive

stdin: Next molecule up: N#CCCC1(CCC#N)CCc2ccccc2C1=O
stdout: inactive

stdin: And for COc1cc([C@@H]2c3cc4c(cc3[C@@H](NCCNCCO)[C@H]3COC(=O)[C@H]23)OCO4)cc(OC)c1O ?
stdout: inactive

stdin: Continue with [N-]=[N+]=CC(=O)C1CCN(c2ccccc2)C1=O (stereo not given)
stdout: inactive

stdin: Similarly, O=c1c(/C=C/c2c(O)ccc3ccccc23)nnc2sc(-c3cccc([N+](=O)[O-])c3)nn12 ?
stdout: inactive

* * *

Test system: NCI-H460
assay_name: NCI tumour cell line growth inhibition, 48 h
Calls of active or inactive are those of the source. No stated cut-off is given here; in the data, active = GI50 up to about 1.1 µM and inactive = higher.
Allowed answers: active, inactive

Example cases with answers are listed next.
stdin: Recorded test outcome, item N#CCCC1(CCC#N)CCc2ccccc2C1=O
stdout: inactive

stdin: Now this one: CC(C)C(Nc1ncnc2nc[nH]c12)C(=O)O (stereo unspecified)
stdout: inactive

stdin: # repeat for [N-]=[N+]=CC(=O)C1CCN(c2ccccc2)C1=O (stereo unspecified)
stdout: inactive

stdin: Also, Cc1nc(SCC(=O)Nc2ccccc2)c2sc(=S)n(-c3ccccc3)c2n1 please.
stdout: inactive

stdin: How about this molecule: Clc1ccc(-c2nnc(-c3c(Cl)c(Cl)c(Cl)c(Cl)c3-c3nc4ccccc4[nH]3)o2)cc1
stdout: inactive

stdin: Same question for CCOC(=O)/C(C#N)=C1\N[C@H](C(=O)OCC)CO1 please.
stdout: inactive

stdin: Subsequent entry: COC(=O)C1(C)CCC(c2ccc(C)cc2)=C(CC(=O)O)C1 (stereo unspecified)
stdout: inactive

stdin: Would you kindly repeat that for N#Cc1c(O)c(/C=N/c2ncccn2)c(=O)n2c1[nH]c1ccccc12 ?
stdout: inactive

stdin: How about this molecule: Cc1cc2nc3c(C(OC4OC(CO)C(O)C(O)C4O)C(O)CO)nn(-c4ccc(F)cc4)c3nc2cc1C (stereo unspecified)
stdout: inactive

stdin: Next up: COc1ccc2nc3ccccc3c(NCCN(C)CCCl)c2c1
stdout: active

Further cases:
stdin: Outcome? O=[N+]([O-])c1ccc2nc(/C(=N/Nc3ccccc3)C(O)c3ccc(C(O)/C(=N\Nc4ccccc4)c4nc5ccc([N+](=O)[O-])cc5nc4O)cc3)cnc2c1 (stereo unspecified)
stdout: inactive

stdin: Now the molecule COC1=CC(=O)c2c(c(O)c3oc4cc(OC)cc(C)c4c(=O)c3c2O)C1=O
stdout: inactive

stdin: Try the molecule NC1=NN(c2ccccc2)C(=O)C1/C(=N\NC(=O)c1cc2ccccc2cc1O)C(=O)Nc1ccc(Cl)cc1 (stereo unspecified)
stdout: inactive

stdin: Try the molecule COc1cc2ccc(C(C)NCC#N)cc2cc1OC (stereo unspecified)
stdout: inactive

stdin: Then what about the molecule COc1ccccc1/C=C1\CCC(CN2CCOCC2)C1=O (stereo unspecified) ?
stdout: inactive

stdin: What do you get for CN1CCN(c2c(Cl)cc(Cl)c3[nH]c4ccccc4c(=O)c23)CC1 ?
stdout: inactive

stdin: Note, next up: CC1=C(/C=C/C(C)=C/C=C/C(C)=C/C=C/C=C(C)/C=C/C=C(C)/C=C/C2=C(C)C(=O)C(O)CC2(C)C)C(C)(C)CC(O)C1=O (stereo unspecified)
stdout: inactive

stdin: Now consider CCCCCCCCCC(=O)OCC1OC(n2cc(F)c(=O)[nH]c2=O)C(NC(=O)OCc2ccccc2)C(OC(=O)CCCCCCCCC)C1O (stereo unspecified) .
stdout: inactive

stdin: Entry to check: CN(C)/C=C/c1c2c(nc3ccccc13)C(=O)c1ccccc1C2=O
stdout: active

stdin: Try the molecule CC1CC[C@]2(C(=O)O)CCC3(C)C(=CCC4[C@@]5(C)CC[C@H](OS(=O)(=O)c6ccccc6)C(C)(C)C5CC[C@]43C)[C@@H]2[C@H]1C (stereo partly specified)
stdout: inactive

stdin: Same read-out for O=C1Nc2cc([N+](=O)[O-])ccc2N/C1=C/C(=O)c1ccc(Cl)cc1 ?
stdout: inactive
